Test: soluble on expression in E. coli; label from the status in PepcDB or PDB records
result-type: soluble on expression in E. coli

Recorded results for 5 sequences are shown here.
- biosequence: "MSPTGNYLNAITNRRTIYNLKPELPQGVGLDDVKRTVHVILKNTPTAFNSQVNRAVIIVGDTHKRIWDAVASAMPTAEAKKRPESCRDEAYGSVIFFTDEGPTEKLQRDFPALAAAFPTCAAHTTGAVQIQSWTALELLGLGANLQHYNDYVKSALPQDVPIAWTVQSQLVFGVPTALPEEKTFINNVINVYH"
  soluble on expression in E. coli: "soluble"
- biosequence: "GMRVDKHEVRVGELAAGQPLSLPVYRFKGKGAGPSVYIQANVHGAEVQGNAVIYQLMKLLEHYELLGDISLVPLANPLGINQKSGEFTLGRFDPITGVNWNREYLDHGFNIEVWYQEHSHLDDDTLITAFRATLVEECARRLNNPWGVTTGHRLAVTLQSMAHRADIVLDLHTGPKSCKHLYCPEYERSAAQYFSIPYTLLIPNSFGGAMDEAAFVPWWTLAEVASSHGRELGVRVSALTLELGSQERIDLDDALEDAEGILAYLSHRGVIAETVLPKPMKRYGCFLKNYRKFHAPKAGMVEYLGKVGVPMKATDPLVNLLRLDLYGTGEELTVLRLPEDGVPILHFASASVHQGTELYKVMTKVFEL"
  soluble on expression in E. coli: "soluble"
- biosequence: "MSLAIGRILIIDDENINAETMMDTLEDVNYHVVLAANANQAKTIVEDQIFDLVMMDVWMPAQDGMSLLEEWTQSGFSTPIVMMSGHAEHQDVVKAIKLGAVDFLEKPLHDILPLVRKILSEQVLEKSEHTINGIEFNAPLKEARNIFEVQYFNHHLQENKHNIAKVAILAGLERTTLYRKLKDLGIDKEGHHHHHH"
  soluble on expression in E. coli: "soluble"
- biosequence: "MGGSHHHHHHGMASALQRVSGLLSWTLSRVLWLSGLSEPGAARQPRIMEEKALEVYDLIRTIRDPEKPNTLEELEVVSESCVEVQEINEEEYLVIIRFTPTVPHCSLATLIGLCLRVKLQRCLPFKHKLEIYISEGTHSTEEDINKQINDKERVAAAMENPNLREIVEQCVLEPD"
  soluble on expression in E. coli: "not soluble"
- biosequence: "MGSDKIHHHHHHMILDTLENLAHYTHLGPRIAKALQHLKETDFTQLPVGNYELEGKDIFVIVNDYETKPREVEPFEVHRKYIDVQYVVSGEEEFGYLPLADQTPSKPYYDKHDYAEFDYESNKARAAFIPFKAGMFALFFPQDMHMPGVSATPQKVRKVVIKVKI"
  soluble on expression in E. coli: "not soluble"

Now, please, on to the next sequence.
Briefly, soluble on expression in E. coli measured for `MDQLFYNGPPDYVEIEDRAITTEPGASIQAAPGAIWMEALPAIEGIPAGLEYLAYLDTVMVHQVKEVLEILTGWESKNKYAIRNKNGQQCYYAFEESNAWERQCCGSQRGFTMHIVDNFNKNVLIVKRELRCCADSFCGCLLGLQNICTIESLSTGLLGTVLQGYGCTNSFYNILDKDGNLIFLVDGQGCCTSCCCEDKDFTIKTPDSSVPIGSITKKWGGLLREAFTDADTFAVTFPIDLDVKLKAILLGATFLIDFVEFENNN` : not soluble

###

Assay: soluble on expression in E. coli; label from the status in PepcDB or PDB records

- biosequence: "MMTDKLNLNVLDAAFYSLEQTVVQISDRNWFDMQPSIVQDTLIAGAIQKFEFVYELSLKMMKRQLQQDAINTDDIGAYGFKDILREALRFGLIGDMSKWVAYRDMRNITSHTYDQEKAMAVYAQIDDFLIESSFLLEQLRQRNQYD"
  soluble on expression in E. coli: "soluble"
- biosequence: "PHFIVECSDNIREEADLPGLFAKVNPTLAATGIFPLAGIRSRVHWVDTWQMADGQHDYAFVHMTLKIGAGRSLESRQQAGEMLFELIKTHFAALMESRLLALSFEIEELHPTLNFKQNNVHALFK"
  soluble on expression in E. coli: "soluble"
- biosequence: "SVADANGSSSSSFNFLIYGKTGWIGGLLGKLCEAQGITYTYGSGRLQDRQSIVADIESVKPSHVFNAAGVTGRPNVDWCESHKVETIRTNVAGTLTLADICREKGLVLINYATGCIFEYDSGHPLGSGIGFKEEDTPNFTGSFYSKTKAMVEELLKNYENVCTLRVRMPISSDLTNPRNFITKIARYEKVVDIPNSMTILDELLPISIEMAKRNLTGIYNFTNPGVVSHNEILEMYRDYIDPSFTWKNFTLEEQAKVIVAPRSNNELDATKLKTEFPELMSIKESLIKFVFEPNKKTEVKA"
  soluble on expression in E. coli: "soluble"

###

Assay: soluble on expression in E. coli; label from the status in PepcDB or PDB records
result-type: soluble on expression in E. coli

- biosequence: "VGVKPVGSDPDFQPELSGAGSRLAVVKFTMRGCGPCLRIAPAFSSMSNKYPQAVFLEVDVHQCQGTAATNNISATPTFQFFRNKVRIDQYQGADAVGLEEKIKQHLE"
  test-value: "soluble"
- biosequence: "MGSDKIHHHHHHMHFVITGSLGHIGKPLAIQLSKEGHAVTVVSSNTERIKEIESIGAKAAIGSVEDPGFLTETFRGADAVFTMVPPNMNAADWKAWIAGIGKNYVAAIKESGVKHVVNLSSIGAHMVDKCGPVSGLSQVELAMDEMKGVNVHHLRAGYFYTNFLNSIGQIKNQGIITGNYMPDLKMVLVHPADIADIAARALKDESYLGRGFSYIASDEKTPAEIVTILGKATGRMDLKWVERTDKEEYDDLIAIGLPEEIAKNYTEMGAALRSGDMNADYFRNRPVMAGWRTFDSFMPEFIATYNA"
  test-value: "not soluble"
- biosequence: "IVSFYQEQIIRSALALKLHQYEDTGGIIAAGTTSLPESDGATRNWDYRYCWMRDTYYTLQAFNTIGHFEESEKYFHYIENIVANELDRIQPLYTLDCSKKIEEIELDLEGYKGNKPVRVGNDAYTHIQNDVYGQILASITPLFTDRRLLHGNQFSTDIVYKLLAFIDKTMNEKDAGLWEFRHLKQLHCYTFLFHWVGAKSALKIGQLYGDHELIRKSTATIDKAAEMIERCYDPVRKVYTQAVGSTYLDASCIQLISMHYLDPSSEKARLHLKAIEEDLMVKDGLLFRYKHEDDFGKPEVTFLVCAFWYVDALASVGRIDDAIKAFESLLTYTNHVGLLSEDVGLDGSQWGNFPQTYSHVGLMNSAYRIAKKLDRPS"
  test-value: "not soluble"
- biosequence: "VSDQFDAKAFLKTVTSQPGVYRMYDAGGTVIYVGKAKDLKKRLSSYFRSNLASRKTEALVAQIQQIDVTVTHTETEALLLEHNYIKLYQPRYNVLLRDDKSY"
  test-value: "soluble"
- biosequence: "MKSNTSQQRPYQEVGAMIRDLIVQTPYRPGERLPPEREIAERLNVTRTVVREALIMLEIKGLVEVRRGAGIYVLDSADNNEMEGADVNHCNDAGPFELLQARQLLESNIAEFAALQATREDIIKMRQALQLEERELASSAPGGSESGDMQFHLAIAEATHNSMLVELFRQSWQWRENNPMWLQLHSHLGDTLYRKEWLVDHKQILAALIKKDARAAKLAMWQHLENVKQRLLEFSNVDDIYFDGYLFESWPLDNVDA"
  test-value: "not soluble"
- biosequence: "MLENSKKLIMNFVLKYSKKKRQNSGINISEICKFFEHVPLSCAALGLATKKNFGGEICAFKERKIKNYCKIFEPKSALFQTPPPPLIVGVISGAH"
  test-value: "soluble"

List reported soluble on expression in E. coli for each of these sequences:
1. MGSDKIHHHHHHMLVVIPQVLNAEQVGAVRERLEHAGEAWVDGRVTAGYSGAPVKFNQQIDERSDVALECQRLILGMLERNPRFISAALPNIVYPPMFNRYSEGMTFGAHVDGSVRIHPHDGRKLRTDISATLFLSPHDSYDGGELQVQDTYGMHSVKLDAGDMVVYPATSLHQVTPITRGTRVASFFWIQSLIRDDTQRSLLFDMDNAIQRLNQTGADEEARRTLVGCYHNLLRQWSET
2. AHHHHHHGSVRVAIIGQGYVASIFAVGLERIKEGELGYYGIPLANELPIKVEDIKIVASYDVDKTKIGLPLSEIVQRYWKGNVPESLQEVFVRKGIHLGSLRNLPIEATGLEDEMTLKEAIERLVEEWKEKKVDVIINVPTTEAFTPFGKLEELEKAIKDNNKERLTATQAYAYAAAQYAKEVGGAAFVNAIPTLIANDPAFVELAKESNLVIFGDDGATGATPLTADILGHLAQRNRHVLDIVQFNIGGNTDFLALTDKERNKSKEYTKSSVVEDILGYDAPHFIKPTGYLEPLGDKKFIAMHIEYISFNGARDELIIAGRINDSPALAGLLVDLARLGKIAVDKKEFGTVYPVNAFYMKNPGPKEAKNIPRIIAYEKLRQWAGLPPRYL
3. MGSDKIHHHHHHMTNEQDPKQNHLLSVLPEAEWARISPHLVRIDMPLGQVIYESGDRLHHVYFPTTSIVSLLYVMEDGSSAEIAIVGNEGLIGIALFMGGETTPNRAIVQSAGEAYRLDARILKQEFHRAGPVQRLLLRYTQALITQMAQTAVCNRHHSIDQQLCRWLLLSLDRLPSNELRMTQELIANMLGVRRSGVTEAALKLQDAGLIRYSHGHIEVLDRPGLEKRVCECYNVVKQEFDRLLPDLKAL

a:
1: not soluble; 2: soluble; 3: not soluble
